test system: 379773-124-R-J2-PDC spheroid viability; experiment: Anticancer human tumor 379773-124-R-J2-PDC patient-derived endometrial carcinoma cell line growth inhibition [POLQ]; conditions: second compound 3.16 µM; first compound 0.1 µM; hits give low values; spheroids with HUVEC and MSC
viability, T/C for assorted molecules

For orientation, consider the following solved cases.
molecule	viability, T/C
COc1cc2cc(C(=O)CCC(=O)O)sc2cc1OC + Cc1cccc(N(C)C(=O)C2C(O)CCN2c2nc(C)cc(C(F)(F)F)c2C#N)c1	83.7%
O=C(c1cc(Cc2n[nH]c(=O)c3ccccc23)ccc1F)N1CCN(C(=O)C2CC2)CC1 + Cc1cccc(N(C)C(=O)C2C(O)CCN2c2nc(C)cc(C(F)(F)F)c2C#N)c1	78.4%
Nc1ccn(C2OC(CO)C(O)C2(F)F)c(=O)n1 (stereo unspecified) + COC1C(OC(N)=O)C(O)C(Oc2ccc3c(O)c(NC(=O)c4ccc(O)c(CC=C(C)C)c4)c(=O)oc3c2C)OC1(C)C	7.44%
C=CCn1c(=O)c2cnc(Nc3ccc(N4CCN(C)CC4)cc3)nc2n1-c1cccc(C(C)(C)O)n1 + COC1C(OC(N)=O)C(O)C(Oc2ccc3c(O)c(NC(=O)c4ccc(O)c(CC=C(C)C)c4)c(=O)oc3c2C)OC1(C)C	77.5%

Entry COc1cc(C2c3cc4c(cc3C(OC3OC5COC(C)OC5C(O)C3O)C3COC(=O)C23)OCO4)cc(OC)c1O (stereo unspecified) + Nc1ccc(C#CCN(C(=O)Cc2ncc(C(F)(F)F)cc2C(F)(F)F)c2ccc(F)cc2)nn1 : reported viability, T/C = ?
96.1%

Same again, this time with COc1cccc2c1C(=O)c1c(O)c3c(c(O)c1C2=O)CC(O)(C(=O)CO)CC3OC1CC(N)C(O)C(C)O1 (stereo unspecified) + Cc1cccc(N(C)C(=O)C2C(O)CCN2c2nc(C)cc(C(F)(F)F)c2C#N)c1
15.7%

Quick one: Cn1ncnc1[C@H]1c2n[nH]c(=O)c3cc(F)cc(c23)N[C@@H]1c1ccc(F)cc1 + COC1C(OC(N)=O)C(O)C(Oc2ccc3c(O)c(NC(=O)c4ccc(O)c(CC=C(C)C)c4)c(=O)oc3c2C)OC1(C)C
56.1%

###

test system: 379773-124-R-J2-PDC spheroid viability; assay: Anticancer human tumor 379773-124-R-J2-PDC cell line growth inhibition [POLQ]; details: second compound 10 µM; first compound 0.1 µM; spheroids with HUVEC and MSC; active means viability on the fitted dose curve at most 10% of control; inactive means the rest;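 note: spheroids exposed to drugs for seven days before readout; percent viability relative to DMSO vehicle control taken as 100%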
Valid outcomes are listed here; reply with one: y (active), n (inactive)

Observe how each entry below is paired with its result.
molecule	tgt	discrete label
CC1COCCN1c1cc(-c2ccnn2C)c2ccnc(-c3ccn[nH]3)c2n1 (stereo not given) + COC1C(OC(N)=O)C(O)C(Oc2ccc3c(O)c(NC(=O)c4ccc(O)c(CC=C(C)C)c4)c(=O)oc3c2C)OC1(C)C	379773-124-R-J2-PDC spheroid viability	n
O=C(Nc1ccc(O)c(NS(=O)(=O)c2ccc(F)cc2)c1)c1ccc(-c2ccccc2)cc1 + COC1C(OC(N)=O)C(O)C(Oc2ccc3c(O)c(NC(=O)c4ccc(O)c(CC=C(C)C)c4)c(=O)oc3c2C)OC1(C)C	379773-124-R-J2-PDC spheroid viability	n
O=c1[nH]cc(F)c(=O)[nH]1 + COC1C(OC(N)=O)C(O)C(Oc2ccc3c(O)c(NC(=O)c4ccc(O)c(CC=C(C)C)c4)c(=O)oc3c2C)OC1(C)C	379773-124-R-J2-PDC spheroid viability	n
CC1COCCN1c1cc(C2(S(C)(=N)=O)CC2)nc(-c2ccnc3[nH]ccc23)n1 (stereo not given) + Nc1ccc(C#CCN(C(=O)Cc2ncc(C(F)(F)F)cc2C(F)(F)F)c2ccc(F)cc2)nn1	379773-124-R-J2-PDC spheroid viability	n

# ---- query molecule ----
Name the outcome recorded for CCc1c2c(nc3ccc(O)cc13)-c1cc3c(c(=O)n1C2)COC(=O)[C@]3(O)CC + COC1C(OC(N)=O)C(O)C(Oc2ccc3c(O)c(NC(=O)c4ccc(O)c(CC=C(C)C)c4)c(=O)oc3c2C)OC1(C)C in the assay.
y

###

The compounds listed here are annotated with their viability, T/C.
tested on: 379773-124-R-J2-PDC spheroid viability; test: Anticancer human tumor 379773-124-R-J2-PDC cell line growth inhibition [POLQ]; details: second compound 10 µM; first compound 0.1 µM; hits give low values; spheroids with HUVEC and MSC;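 note: spheroids exposed to drugs for seven days before readout; percent viability relative to DMSO vehicle control taken as 100%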
Write down the numeric answer in % and omit the unit.

Worked set:
compound	experimental result
O=c1[nH]cc(F)c(=O)[nH]1 + Cc1cccc(N(C)C(=O)C2C(O)CCN2c2nc(C)cc(C(F)(F)F)c2C#N)c1	96.6
CCCS(=O)(=O)Nc1ccc(F)c(C(=O)c2c[nH]c3ncc(-c4ccc(Cl)cc4)cc23)c1F + COC1C(OC(N)=O)C(O)C(Oc2ccc3c(O)c(NC(=O)c4ccc(O)c(CC=C(C)C)c4)c(=O)oc3c2C)OC1(C)C	85.4
Nc1ccn(C2OC(CO)C(O)C2(F)F)c(=O)n1 (stereo not drawn) + Cc1cccc(N(C)C(=O)C2C(O)CCN2c2nc(C)cc(C(F)(F)F)c2C#N)c1	10.8

Find the recorded viability, T/C belonging to O=c1[nH]cc(F)c(=O)[nH]1 + Nc1ccc(C#CCN(C(=O)Cc2ncc(C(F)(F)F)cc2C(F)(F)F)c2ccc(F)cc2)nn1 and report it.
88.2

One more compound: COc1cc2cc(C(=O)CCC(=O)O)sc2cc1OC + Cc1cccc(N(C)C(=O)C2C(O)CCN2c2nc(C)cc(C(F)(F)F)c2C#N)c1
84.6

Now the same for CCc1cc2c(N3CCc4c(cc(Cn5ccnc5)cc4-c4cn(C)nc4C(F)(F)F)C3=O)cc(C)nc2c(OC)n1 + Nc1ccc(C#CCN(C(=O)Cc2ncc(C(F)(F)F)cc2C(F)(F)F)c2ccc(F)cc2)nn1
68.2

What would you report for COc1cccc2c1C(=O)c1c(O)c3c(c(O)c1C2=O)CC(O)(C(=O)CO)CC3OC1CC(N)C(O)C(C)O1 (stereo not drawn) + COC1C(OC(N)=O)C(O)C(Oc2ccc3c(O)c(NC(=O)c4ccc(O)c(CC=C(C)C)c4)c(=O)oc3c2C)OC1(C)C ?
19.4

Now try C#Cc1c(F)ccc2cc(O)cc(-c3ncc4c(N5CC6CCC(C5)N6)nc(OCC56CCCN5CC(F)C6)nc4c3F)c12 (stereo not drawn) + COC1C(OC(N)=O)C(O)C(Oc2ccc3c(O)c(NC(=O)c4ccc(O)c(CC=C(C)C)c4)c(=O)oc3c2C)OC1(C)C .
85.8

# repeat for Cn1ncnc1[C@H]1c2n[nH]c(=O)c3cc(F)cc(c23)N[C@@H]1c1ccc(F)cc1 + COC1C(OC(N)=O)C(O)C(Oc2ccc3c(O)c(NC(=O)c4ccc(O)c(CC=C(C)C)c4)c(=O)oc3c2C)OC1(C)C
58.1

// next record CCc1c2c(nc3ccc(O)cc13)-c1cc3c(c(=O)n1C2)COC(=O)[C@]3(O)CC + Nc1ccc(C#CCN(C(=O)Cc2ncc(C(F)(F)F)cc2C(F)(F)F)c2ccc(F)cc2)nn1
4.49

Now the compound Cn1ncnc1[C@H]1c2n[nH]c(=O)c3cc(F)cc(c23)N[C@@H]1c1ccc(F)cc1 + Cc1cccc(N(C)C(=O)C2C(O)CCN2c2nc(C)cc(C(F)(F)F)c2C#N)c1
54.1

Consider next the compound COc1cccc2c1C(=O)c1c(O)c3c(c(O)c1C2=O)CC(O)(C(=O)CO)CC3OC1CC(N)C(O)C(C)O1 (stereo not drawn) + Nc1ccc(C#CCN(C(=O)Cc2ncc(C(F)(F)F)cc2C(F)(F)F)c2ccc(F)cc2)nn1 in the same way.
26.8

Proceed to COc1cc2cc(C(=O)CCC(=O)O)sc2cc1OC + Nc1ccc(C#CCN(C(=O)Cc2ncc(C(F)(F)F)cc2C(F)(F)F)c2ccc(F)cc2)nn1
89.6

###

system: 379773-124-R-J2-PDC spheroid viability; test: Anticancer human tumor 379773-124-R-J2-PDC cell line growth inhibition [POLQ]; settings: second compound 0.1 µM; first compound 0.1 µM; hits give low values; spheroids with HUVEC and MSC;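 note: spheroids exposed to drugs for seven days before readout; percent viability relative to DMSO vehicle control taken as 100%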
Mark each entry class 1 if its viability, T/C sits below 90%, and class 0 for all others.

Solved cases (3 shown):
compound	discrete label
CC1COCCN1c1cc(-c2ccnn2C)c2ccnc(-c3ccn[nH]3)c2n1 (stereo unspecified) + COC1C(OC(N)=O)C(O)C(Oc2ccc3c(O)c(NC(=O)c4ccc(O)c(CC=C(C)C)c4)c(=O)oc3c2C)OC1(C)C	class 1
COc1cccc(OCCCN)c1-c1cc(Nc2cnc(C#N)cn2)n[nH]1 + Cc1cccc(N(C)C(=O)C2C(O)CCN2c2nc(C)cc(C(F)(F)F)c2C#N)c1	class 1
C=CCn1c(=O)c2cnc(Nc3ccc(N4CCN(C)CC4)cc3)nc2n1-c1cccc(C(C)(C)O)n1 + Cc1cccc(N(C)C(=O)C2C(O)CCN2c2nc(C)cc(C(F)(F)F)c2C#N)c1	class 0

Regarding O=c1[nH]cc(F)c(=O)[nH]1 + Nc1ccc(C#CCN(C(=O)Cc2ncc(C(F)(F)F)cc2C(F)(F)F)c2ccc(F)cc2)nn1 , kindly confirm whether its viability, T/C is beneath 90%.
class 0

Let us now turn to C=CC(=O)N1CCN(c2nc(=O)n(-c3c(C)ccnc3C(C)C)c3nc(-c4c(O)cccc4F)c(F)cc23)C(C)C1 (stereo unspecified) + COC1C(OC(N)=O)C(O)C(Oc2ccc3c(O)c(NC(=O)c4ccc(O)c(CC=C(C)C)c4)c(=O)oc3c2C)OC1(C)C
class 1
